Target: TGF-β1 (UniProt P01137 279-390)
Sequence (P01137 279-390 limits assumed): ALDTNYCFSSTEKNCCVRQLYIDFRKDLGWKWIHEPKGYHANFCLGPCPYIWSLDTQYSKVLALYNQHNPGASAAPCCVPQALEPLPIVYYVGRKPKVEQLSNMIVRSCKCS
Assay: cell-based or functional assay
The entries below are paired with their reported IC50, TGF-β1 neutralization activity (HEK-Blue TGF-β reporter cells).
Give your result in pM as a bare value.

Input Anti-PD-1 (VL5-VH6).IgG4-Linker 2 -TGFbRII (other) heavy (part 1 of 2): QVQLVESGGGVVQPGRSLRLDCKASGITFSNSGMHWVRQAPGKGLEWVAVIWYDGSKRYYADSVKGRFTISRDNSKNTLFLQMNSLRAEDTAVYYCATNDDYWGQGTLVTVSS heavy (part 2 of 2): GGGGSGGGSIPPHVQKSVNNDMIVTDNNGAVKFPQLCKFCDVRFSTCDNQKSCMSNCSITSICEKPQEVCVAVWRKNDENITLETVCHDPKLPYHDFILEDAASPKCIMKEKKKPGETFFMCSCSSDECNDNIIFSEEYNTSNPD VL: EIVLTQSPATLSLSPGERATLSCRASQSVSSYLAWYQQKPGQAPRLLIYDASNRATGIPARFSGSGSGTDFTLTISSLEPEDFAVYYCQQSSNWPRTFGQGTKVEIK , output reported IC50, TGF-β1 neutralization activity (HEK-Blue TGF-β reporter cells).
1.2

Look up and report measured IC50, TGF-β1 neutralization activity (HEK-Blue TGF-β reporter cells) for this entry: Anti-PD-1 (VL5-VH6).IgG4-Linker12 -TGFbRII (other) heavy (part 1 of 2): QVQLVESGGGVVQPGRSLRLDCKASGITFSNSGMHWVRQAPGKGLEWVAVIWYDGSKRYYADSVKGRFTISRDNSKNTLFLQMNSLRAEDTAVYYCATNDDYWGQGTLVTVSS heavy (part 2 of 2): DPVLEREDKVTTSKNPGSIPPHVQKSVNNDMIVTDNNGAVKFPQLCKFCDVRFSTCDNQKSCMSNCSITSICEKPQEVCVAVWRKNDENITLETVCHDPKLPYHDFILEDAASPKCIMKEKKKPGETFFMCSCSSDECNDNIIFSEEYNTSNPD VL: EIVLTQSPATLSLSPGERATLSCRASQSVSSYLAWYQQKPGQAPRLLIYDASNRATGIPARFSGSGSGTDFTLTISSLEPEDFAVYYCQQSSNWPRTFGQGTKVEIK
2.7
